test-system: T1, HTRA3, P83110
T1 sequence (P83110 354-453, limits assumed, looked up): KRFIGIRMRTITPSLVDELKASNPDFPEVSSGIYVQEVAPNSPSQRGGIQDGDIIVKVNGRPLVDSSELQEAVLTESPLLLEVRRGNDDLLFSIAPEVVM
protocol-description: holdup assay
Parameters: key: below the threshold = too weak to quantify, mostly under pKd 3.1 to 4
assay-conditions: plain residues with an end cap or a label only (N-terminal biotin on a linker: ttds)
metric-name: pKd

Below are worked cases with known answers.
binder="FHPLGADSQV [SLC2A1, P11166]" metric_name=pKd result="below the threshold"
binder="RPLPRKVSQL [DOCK4, Q8N1I0]" metric_name=pKd result="below the threshold"
binder="DKDPHSETAL [TMIGD1, Q6UXZ0]" metric_name=pKd result="below the threshold"
binder="SKPTRRETEV [HPV35-E6, P27228]" metric_name=pKd result="below the threshold"
binder="SSLQSLETSV [ATP2B4, P23634]" metric_name=pKd result=3.51

Can you share its pKd? I mean this binder: PRVKPQRSKV [PPP1R13L, Q8WUF5]
below the threshold

How about EVVHTPETSV [SLC16A3, O15427] ?
below the threshold

How about NDPAWDETNL [ARHGEF7, Q14155;Q14155-1] ?
below the threshold

How about PVRVCEETSL [OTULIN, Q96BN8] ?
below the threshold

How about RLQRRRETQV [HPV18-E6, P06463] ?
below the threshold

How about VDFPPKESSL [ACVR2A, P27037] ?
below the threshold

How about EMDRRPATVV [PLCB4, Q15147] ?
below the threshold

How about RLPKIKETTV [FRMPD4, Q14CM0] ?
below the threshold
